B1: tRNA (parent)
chain: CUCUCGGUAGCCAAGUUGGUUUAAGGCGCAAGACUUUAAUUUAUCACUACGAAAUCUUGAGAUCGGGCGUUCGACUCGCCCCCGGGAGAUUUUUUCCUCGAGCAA

Variants of: B1
Assay: nonsense suppression (GFP-seq) (ratio to wild type); higher = more function; SUP4oc tRNA, yeast GFP reporter sort-seq
This sample holds only a part of the variants without activity.
Quick rule for you: nonsense suppression at 0.07 or higher means Satisfied, lower means Not satisfied.

1. G15U G19A A54U A62G C79A	Not satisfied
2. C3U C75U	Satisfied
3. U2G A23G G66A	Not satisfied
4. A24C G28C	Satisfied
5. C3U G32A G67U G69C	Not satisfied

stdin: Is reported nonsense suppression greater than or equal to 0.07 here: A13C C64U
stdout: Not satisfied

stdin: Given `G59U` , state whether its nonsense suppression is at least 0.07.
stdout: Satisfied

stdin: Can A54C U71G be said to have nonsense suppression at or above 0.07?
stdout: Not satisfied

stdin: Identify whether the reported nonsense suppression of the following variant is 0.07 or greater: C3U U22C
stdout: Satisfied

stdin: Does the variant U17A A30G have recorded nonsense suppression that is 0.07 or more?
stdout: Satisfied

stdin: Hi, just wondering whether U8G G25U A54U U70G G73C shows nonsense suppression of 0.07 or higher.
stdout: Not satisfied

stdin: # check: nonsense suppression of U4G G66A is greater than or equal to 0.07
stdout: Satisfied

stdin: Confirm if nonsense suppression reported for the variant U4A C77U is 0.07 or above.
stdout: Not satisfied

stdin: Confirm if nonsense suppression reported for the variant G28C U63A is 0.07 or above.
stdout: Satisfied

stdin: # check: nonsense suppression of A33G A54U is greater than or equal to 0.07
stdout: Not satisfied

stdin: Is nonsense suppression for A9U G28U A62G U71G at or above 0.07?
stdout: Not satisfied

stdin: Decide: nonsense suppression of U58A G61A >= 0.07?
stdout: Not satisfied

stdin: Entry U63C G85A : is its nonsense suppression no less than 0.07?
stdout: Satisfied

stdin: Given the entry G7C U57A , answer whether its nonsense suppression meets or surpasses 0.07.
stdout: Not satisfied

stdin: Determine whether measured nonsense suppression meets or exceeds 0.07 for U8A G32A
stdout: Not satisfied

stdin: Hello, I need to know if C82A C83U has measured nonsense suppression not below 0.07. Thanks!
stdout: Not satisfied

stdin: // inclusive: nonsense suppression at least 0.07? input: G59C C75G
stdout: Not satisfied

stdin: Entry G6U U17C G28U U55C G69U G88U : is its nonsense suppression no less than 0.07?
stdout: Not satisfied
